Tested on: biotinyl-Phe-oxazolone
Test: self-aminoacylation, catalytic enhancement (BFO) (fold over background); higher = more active; k-Seq, kA / k0A0; sequences stand for … in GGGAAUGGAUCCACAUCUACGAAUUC…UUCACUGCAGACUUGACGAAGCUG
Variants at the floor of the assay were thinned out.
True means recorded self-aminoacylation is 1 or above; False means it is below 1.

Request: Identify whether the reported self-aminoacylation of the following sequence is 1 or greater: CUACUUCAAAAAAUCGGUUUG [Fam1A.1 aminoacylation ribozyme variant]
Response: True

Request: Identify whether the reported self-aminoacylation of the following sequence is 1 or greater: AUGCUUCAAACAAUCGGUCUG [Fam1A.1 aminoacylation ribozyme variant]
Response: True

Request: Identify whether the reported self-aminoacylation of the following sequence is 1 or greater: CUACUUCAAACAAAAGGUCUG [Fam1A.1 aminoacylation ribozyme variant]
Response: False

Request: Identify whether the reported self-aminoacylation of the following sequence is 1 or greater: CCACACUUCCUGCAAUCGGUC [Fam1B.1 aminoacylation ribozyme variant]
Response: False

Request: Identify whether the reported self-aminoacylation of the following sequence is 1 or greater: AUUACCCUGGUCGACGAGUGA [Fam2.1 aminoacylation ribozyme variant]
Response: True

Request: Identify whether the reported self-aminoacylation of the following sequence is 1 or greater: ACGUUUGGUAAUAGUCGCAAG [Fam3.1 aminoacylation ribozyme variant]
Response: True

Request: Identify whether the reported self-aminoacylation of the following sequence is 1 or greater: CUACUUCAAACCACCGGUCUG [Fam1A.1 aminoacylation ribozyme variant]
Response: False

Request: Identify whether the reported self-aminoacylation of the following sequence is 1 or greater: AAGUUCGCUAAUAUUCGCAAG [Fam3.1 aminoacylation ribozyme variant]
Response: True
